Data provenance: patent US11396505B2

# targetSystem: UniProt:Q96RR4
# testSummary: CaMKK1/2 biochemical assay, 32P radiometric kinase assay (CaMKK2)
# testContext: 0.5 μM compound; read-out: CaMKK2 % inhibition @ concentrations shown, 0.5 μM
The following compounds are shown together with reported inhibition at 0.5 µM values.

| compound | inhibition at 0.5 µM |
| --- | --- |
| O=C1OCCN1c1ccc2[nH]nc(/C=C/c3ccccc3)c2c1 [Example 9] | 89% |
| O=C1OCCN1c1ccc2[nH]nc(-c3cccnc3)c2c1 [Example 7] | 29% |
| O=C1OCCN1c1ccc2[nH]nc(-c3ccncc3)c2c1 [Example 13] | 33% |
| O=C1OCCN1c1ccc2[nH]nc(C#Cc3ccccn3)c2c1 [Example 12] | 52% |
| O=C1OCCN1c1ccc2[nH]nc(/C=C/c3ccncc3)c2c1 [Example 11] | 80% |
| O=C1OCCN1c1ccc2[nH]nc(/C=C/c3cccnc3)c2c1 [Example 10] | 72% |
| C=Cc1n[nH]c2ccc(N3CCOC3=O)cc12 [Example 8] | 26% |
| O=C1OCCN1c1ccc2[nH]nc(-c3cc4ccccc4[nH]3)c2c1 [Example 3] | 94% |
| O=C1OCCN1c1ccc2[nH]nc(-c3ccccc3)c2c1 [Example 6] | 37% |
| O=C1OCCN1c1ccc2[nH]nc(/C=C/c3ccccn3)c2c1 [Example 4] | 81% |

* * *

# targetSystem: UniProt:Q96RR4
# testSummary: CaMKK1/2 biochemical assay, 32P radiometric kinase assay (CaMKK2)
# testContext: 0.2 μM compound; read-out: CaMKK2 % inhibition @ concentrations shown, 0.2 μM
readoutName: inhibition at 0.2 µM

| compound | endpointResult |
| --- | --- |
| O=C1OCCN1c1ccc2[nH]nc(-c3cc4ccccc4[nH]3)c2c1 [Example 3] | 80% |
| O=S1(=O)CCCN1c1ccc2[nH]nc(-c3cc4ccccc4[nH]3)c2c1 [Example 32] | 84% |
| CN(C)CCNC(=O)c1cccc(/C=C/c2n[nH]c3ccc(N4CCOC4=O)cc23)c1 [Example 29] | 63% |
